Measured values drawn from patent US10899733B2 for this set.

ENDPOINT LABEL: IC50

QUERY: Which measured IC50 belongs to Cc1c(-c2ccnc(C(F)(F)F)c2)ccc2c1CCNC2=O [Compound 22] , tested on PARP1 (Homo sapiens)?
RESULT: > 100 µM

* * *

- TARGET UNDER TEST: PARP6S (Homo sapiens)
- Sequence (Q2NL67 1-518 isoform Q2NL67-2): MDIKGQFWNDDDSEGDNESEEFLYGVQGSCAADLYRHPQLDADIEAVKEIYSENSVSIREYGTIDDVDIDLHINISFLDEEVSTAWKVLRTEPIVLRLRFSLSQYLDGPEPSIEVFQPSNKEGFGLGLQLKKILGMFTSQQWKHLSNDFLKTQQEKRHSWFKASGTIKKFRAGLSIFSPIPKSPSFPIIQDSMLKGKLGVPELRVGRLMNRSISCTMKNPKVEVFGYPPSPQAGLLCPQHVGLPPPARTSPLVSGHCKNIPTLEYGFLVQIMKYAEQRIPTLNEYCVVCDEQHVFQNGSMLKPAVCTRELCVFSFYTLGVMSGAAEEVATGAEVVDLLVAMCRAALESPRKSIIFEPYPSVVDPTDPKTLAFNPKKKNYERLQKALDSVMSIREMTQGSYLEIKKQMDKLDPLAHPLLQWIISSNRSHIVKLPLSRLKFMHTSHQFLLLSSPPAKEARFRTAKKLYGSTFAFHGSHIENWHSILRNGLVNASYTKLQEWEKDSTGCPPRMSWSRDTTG
pIC50: −log10 of the molar value.
ENDPOINT LABEL: pIC50

QUERY: Would you mind telling me what pIC50 value was observed for Cc1c(-c2ccnc(C(F)(F)F)c2)ccc2c1CCNC2=O ?
RESULT: < 4.52

* * *

- TARGET UNDER TEST: PARP10 (Homo sapiens, UniProt Q53GL7)
- Construct: Human embryonic kidney (HEK) 293T cells expressing full-length PARP10; expressed in transfected cells; host or cells: HEK293T
- Sequence (Q53GL7 1-1025): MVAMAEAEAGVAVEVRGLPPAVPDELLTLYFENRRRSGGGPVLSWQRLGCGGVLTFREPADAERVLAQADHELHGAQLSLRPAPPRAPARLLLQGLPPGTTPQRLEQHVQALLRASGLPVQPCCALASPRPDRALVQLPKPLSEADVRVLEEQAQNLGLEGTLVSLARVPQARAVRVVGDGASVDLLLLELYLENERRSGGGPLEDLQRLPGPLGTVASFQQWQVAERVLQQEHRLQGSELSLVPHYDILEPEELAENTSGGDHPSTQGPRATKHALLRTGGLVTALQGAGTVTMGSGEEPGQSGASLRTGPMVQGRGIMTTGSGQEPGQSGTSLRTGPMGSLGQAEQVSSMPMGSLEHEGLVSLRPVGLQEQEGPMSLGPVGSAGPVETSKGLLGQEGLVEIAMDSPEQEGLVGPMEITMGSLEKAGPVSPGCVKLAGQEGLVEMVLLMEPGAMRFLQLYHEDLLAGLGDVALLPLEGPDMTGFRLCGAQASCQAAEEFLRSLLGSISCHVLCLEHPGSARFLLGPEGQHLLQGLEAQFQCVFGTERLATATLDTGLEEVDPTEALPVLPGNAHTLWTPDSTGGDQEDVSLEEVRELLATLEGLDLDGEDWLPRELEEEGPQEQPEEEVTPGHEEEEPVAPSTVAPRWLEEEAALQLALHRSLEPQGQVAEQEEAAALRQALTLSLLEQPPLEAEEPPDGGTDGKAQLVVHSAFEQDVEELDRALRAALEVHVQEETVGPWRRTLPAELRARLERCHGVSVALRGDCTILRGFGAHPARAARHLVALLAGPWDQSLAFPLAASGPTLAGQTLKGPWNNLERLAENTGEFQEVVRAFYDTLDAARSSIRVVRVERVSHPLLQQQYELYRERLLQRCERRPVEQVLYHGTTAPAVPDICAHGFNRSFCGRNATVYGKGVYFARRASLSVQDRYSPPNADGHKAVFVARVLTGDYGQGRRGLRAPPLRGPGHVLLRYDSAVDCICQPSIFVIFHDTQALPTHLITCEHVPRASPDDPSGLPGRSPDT
- ASSAY PROCEDURE: PARP10-dependent ADP-ribosylation in HEK293T cells expressing GFP-PARP10, Western blot with ADP-ribose binding reagent
- Assay type: cell-based
- RUN CONDITIONS: GFP-PARP10, 22 at 1-100 μM for 3 h, read-out: EC50, PARP10 targets (HMW species)
- Protocol: We next determined if 22 could inhibit PARP10-dependent ADP-ribosylation in cells. […] The EC50 value varies depending on the species quantified. HEK293T cells were transfected with GFP-PARP10 and incubated with increasing concentrations of 22 (1-100 μM) for 3 h. Lysates were prepared and auto-ADP-ribosylation of PARP10 and its high molecular weight (HMW) targets were analyzed with an ADP-ribose binding reagent (α-APDr) (FIG. 2B) Quantification of data shown in FIG. 2(a).
ENDPOINT LABEL: pEC50
Would you please state pEC50, meaning minus log10 of the concentration in mol/L, as a bare number?

QUERY: Recorded pEC50 for Cc1c(-c2ccnc(C(F)(F)F)c2)ccc2c1CCNC2=O with PARP10 (Homo sapiens, UniProt Q53GL7), please?
RESULT: 5.64
